Recorded below: pIC50, system HGFR (Homo sapiens, UniProt P08581).
Scale: pIC50 equals -log10([C]), with [C] in mol/L.

NCCNc1ncc(C(N)=O)c(Nc2cccc(C(F)(F)F)c2)n1 [Syk II]: 4.16
Oc1cc(O)cc(/C=C/c2ccc(O)c(O)c2)c1 [Piceatannal]: 4.46

Tested system HGFR (Homo sapiens, UniProt P08581); pIC50 recorded for Cn1cc(-c2nc(N[C@@H]3CCCC[C@@H]3N)c(F)c3c2C(=O)NC3)cn1 [TAK-659] was 5.50

* * *

- TARGET UNDER TEST: VEGFR (Homo sapiens, UniProt P35916)
- Sequence (P35916 whole entry): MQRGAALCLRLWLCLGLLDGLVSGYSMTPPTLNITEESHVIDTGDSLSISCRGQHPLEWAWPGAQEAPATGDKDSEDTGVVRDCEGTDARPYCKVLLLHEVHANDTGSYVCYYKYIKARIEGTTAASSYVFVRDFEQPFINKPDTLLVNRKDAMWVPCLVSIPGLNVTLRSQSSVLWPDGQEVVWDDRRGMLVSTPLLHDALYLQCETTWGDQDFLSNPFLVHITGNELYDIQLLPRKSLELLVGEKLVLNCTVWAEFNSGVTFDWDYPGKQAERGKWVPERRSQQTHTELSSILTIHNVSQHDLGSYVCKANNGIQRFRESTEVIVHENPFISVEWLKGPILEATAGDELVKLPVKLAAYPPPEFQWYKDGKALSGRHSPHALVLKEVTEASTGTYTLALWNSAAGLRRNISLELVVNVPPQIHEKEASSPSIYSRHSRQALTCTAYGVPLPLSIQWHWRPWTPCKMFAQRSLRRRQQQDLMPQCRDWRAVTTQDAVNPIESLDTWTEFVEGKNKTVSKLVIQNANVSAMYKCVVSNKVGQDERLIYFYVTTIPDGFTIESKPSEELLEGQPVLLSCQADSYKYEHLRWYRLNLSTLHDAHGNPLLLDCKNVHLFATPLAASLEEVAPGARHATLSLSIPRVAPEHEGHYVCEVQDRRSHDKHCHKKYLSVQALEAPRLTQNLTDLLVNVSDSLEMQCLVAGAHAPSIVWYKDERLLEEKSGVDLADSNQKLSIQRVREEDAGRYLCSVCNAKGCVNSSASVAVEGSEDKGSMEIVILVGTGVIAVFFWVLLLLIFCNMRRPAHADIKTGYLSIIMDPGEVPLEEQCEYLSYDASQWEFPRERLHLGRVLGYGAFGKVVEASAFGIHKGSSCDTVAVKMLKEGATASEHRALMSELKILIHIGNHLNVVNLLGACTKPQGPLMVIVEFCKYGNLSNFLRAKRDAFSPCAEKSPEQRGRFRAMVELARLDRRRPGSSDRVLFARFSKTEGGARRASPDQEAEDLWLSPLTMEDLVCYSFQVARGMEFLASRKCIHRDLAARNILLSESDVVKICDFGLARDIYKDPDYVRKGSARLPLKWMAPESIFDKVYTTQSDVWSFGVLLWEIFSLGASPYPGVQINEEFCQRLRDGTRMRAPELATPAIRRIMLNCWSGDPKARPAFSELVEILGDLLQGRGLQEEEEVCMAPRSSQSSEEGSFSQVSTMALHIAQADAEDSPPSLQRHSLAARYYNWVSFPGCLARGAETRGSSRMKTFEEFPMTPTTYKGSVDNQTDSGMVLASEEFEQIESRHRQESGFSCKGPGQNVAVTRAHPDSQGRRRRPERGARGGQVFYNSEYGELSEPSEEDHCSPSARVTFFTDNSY
Values of IC50 strictly less than 2000 nM map to Condition met, and values of at least 2000 nM map to Condition not met.

Solved cases below.
Oc1cc(O)cc(/C=C/c2ccc(O)c(O)c2)c1 [Piceatannal]: Condition not met
CN1CCN(c2ccc(C(=O)Nc3n[nH]c4ccc(Cc5cc(F)cc(F)c5)cc34)c(NC3CCOCC3)c2)CC1 [Entrectinib]: Condition met
COc1ccc(-c2cc3nccn3c(Nc3ncccc3C(N)=O)n2)cc1OC [Syk IV]: Condition met
Cn1cc(-c2cc3c(N4CCN(c5ncc([C@@](C)(N)c6ccc(F)cc6)cn5)CC4)ncnn3c2)cn1 [Avapritinib]: Condition not met
CCc1cc2c(cc1N1CCC(N3CCOCC3)CC1)C(C)(C)c1[nH]c3cc(C#N)ccc3c1C2=O [Alectinib]: Condition met

Incoming: Is 2000 nM strictly greater than the compound's reported IC50? compound: COc1ccc(Nc2nc(-c3ccc4c(CN5CC(O)C5)c[nH]c4c3)cn3ccnc23)cc1OC [Compound S970]
Outgoing: Condition not met

Incoming: Is 2000 nM strictly greater than the compound's reported IC50? compound: NCCNc1ncc(C(N)=O)c(Nc2cccc(C(F)(F)F)c2)n1 [Syk II]
Outgoing: Condition not met

Incoming: Is 2000 nM strictly greater than the compound's reported IC50? compound: COc1cc(Nc2ncc(F)c(Nc3ccc4c(n3)N(COP(=O)(O)O)C(=O)C(C)(C)O4)n2)cc(OC)c1OC [Fostamtinib]
Outgoing: Condition met

Incoming: Is 2000 nM strictly greater than the compound's reported IC50? compound: CCn1c(=O)c(-c2cc(NC(=O)Nc3ccccc3)c(F)cc2Br)cc2cnc(NC)cc21 [Ripretinib]
Outgoing: Condition met

Incoming: Is 2000 nM strictly greater than the compound's reported IC50? compound: COc1ccc(Nc2nc(-c3ccc4c(CN5CC(O)C5)cn(CO)c4c3)cn3ccnc23)cc1OC [Compound S970D]
Outgoing: Condition not met

The origin of these recorded values is patent US20250186432A1.
